Record form. Attribute: TGI. Fill in for each entry.
Test system: DU-145 prostate
Experiment: NCI tumour cell line growth inhibition, 48 h
Value expressed in µM; do not type the unit.

**Q:** For the molecule shown here, Cc1ccc2c(C(C[N+](=O)[O-])c3cccs3)c(-c3ccccc3)[nH]c2c1 (stereo not given) , give the reported TGI.
**A:** 16.9

**Q:** For the molecule shown here, O=C(Nc1cccc(-n2ccc3c(NC(=O)c4ccccc4)nccc32)c1)c1cccc(C(F)(F)F)c1 , give the reported TGI.
**A:** 0.168

**Q:** For the molecule shown here, O=c1cc(-c2cccc(F)c2)[nH]c2cc3c(cc12)OCO3 , give the reported TGI.
**A:** 1.63

**Q:** For the molecule shown here, Brc1cccc(-c2cc(-c3ccc4c(c3)OCCO4)[nH]n2)c1 , give the reported TGI.
**A:** 27

**Q:** For the molecule shown here, O=C(NS(=O)(=O)Nc1ccc(Cl)cc1)OCc1ccc(Cl)cc1Cl , give the reported TGI.
**A:** 46.5

**Q:** For the molecule shown here, Cc1ccc(N=Nc2c3c(c(O)c4ccccc24)CCC(C)(C)O3)cc1 , give the reported TGI.
**A:** 26
